B1: unnamed (parent)
chain 1: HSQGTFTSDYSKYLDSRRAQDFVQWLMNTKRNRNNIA
chain 2: RPQGATVSLWETVQKWREYRRQCQRSLTEDPPPATDLFCNRTFDEYACWPDGEPGSFVNVSCPWYLPWASSVPQGHVYRFCTAEGLWLQKDNSSLPWRDLSECEESKRGERSSPEEQLLFLYIIYTVGYALSFSALVIASAILLGFRHLHCTRNYIHLNLFASFILRALSVFIKDAALKWMYSTAAQQHQWDGLLSYQDSLSCRLVFLLMQYCVAANYYWLLVEGVYLYTLLAFSVLSEQWIFRLYVSIGWGVPLLFVVPWGIVKYLYEDEGCWTRNSNMNYWLIIRLPILFAIGVNFLIFVRVICIVVSKLKANLMCKTDIKCRLAKSTLTLIPLLGTHEVIFAFVMDEHARGTLRFIKLFTELSFTSFQGLMVAILYCFVNNEVQLEFRKSWERWRLEHLHIQRDSSMKPLKCPTSSLSSGATAGSSMYTATCQASCS

variants of: B1; assay: radioligand inhibition binding (competition with 125I-exendin-4(9-39)); details: read off a plot
Measured log10 ratio of individual entries

Solved entries:
mutation_annotation	reported_metric	assay_result
chain 2 L361A	log10 ratio	-0.85 ΔpKi
chain 2 H351A	log10 ratio	-0.4 ΔpKi
chain 2 L195A	log10 ratio	-0.5 ΔpKi
chain 2 E269A	log10 ratio	-1.3 ΔpKi
chain 2 M181A	log10 ratio	-1.5 ΔpKi
chain 2 D192A	log10 ratio	-0.2 ΔpKi
chain 2 L356A	log10 ratio	-0.8 ΔpKi
chain 2 Q190A	log10 ratio	0.1 ΔpKi
chain 2 T363A	log10 ratio	-0.2 ΔpKi
chain 2 N277A	log10 ratio	-1.4 ΔpKi

State its log10 ratio: chain 2 I263A
-0.15 ΔpKi

State its log10 ratio: chain 2 T275A
0.4 ΔpKi

State its log10 ratio: chain 2 D349A
-0.3 ΔpKi

State its log10 ratio: chain 2 F358A
-1.1 ΔpKi

State its log10 ratio: chain 2 S183A
0.1 ΔpKi

State its log10 ratio: chain 2 S200A
-0.35 ΔpKi

State its log10 ratio: chain 2 L178A
-0.9 ΔpKi

State its log10 ratio: chain 2 N281A
-0.5 ΔpKi

State its log10 ratio: chain 2 Q198A
0.15 ΔpKi

State its log10 ratio: chain 2 L194A
-0.15 ΔpKi

State its log10 ratio: chain 2 Y182A
-0.3 ΔpKi

State its log10 ratio: chain 2 Y266A
0.1 ΔpKi
